Cited source: patent US20240270821A1

Subject of test: human glucagon receptor (human) (UniProt P47871)
Sequence (P47871 26-477): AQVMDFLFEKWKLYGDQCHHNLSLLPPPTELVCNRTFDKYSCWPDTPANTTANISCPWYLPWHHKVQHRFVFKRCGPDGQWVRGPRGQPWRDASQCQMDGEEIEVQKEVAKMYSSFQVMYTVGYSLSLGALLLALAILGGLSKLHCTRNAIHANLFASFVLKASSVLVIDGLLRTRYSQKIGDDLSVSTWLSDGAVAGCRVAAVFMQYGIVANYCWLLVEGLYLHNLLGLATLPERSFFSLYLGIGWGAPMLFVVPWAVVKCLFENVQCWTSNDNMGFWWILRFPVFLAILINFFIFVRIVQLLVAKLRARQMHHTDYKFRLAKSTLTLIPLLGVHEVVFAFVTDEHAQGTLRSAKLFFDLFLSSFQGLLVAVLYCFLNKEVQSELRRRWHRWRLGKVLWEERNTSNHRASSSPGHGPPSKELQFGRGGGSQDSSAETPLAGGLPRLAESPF
Experiment notes: cell-based or functional assay
Mark 1 for Relative cAMP EC50 under 6 nM, -1 if at or over.

Worked examples, 5 binders total:
[
  {
    "Binder": "YXQGTXTSDYXIXLDXKAQXXFIEXLEEGGPSSGEPPPE (synthetic construct; SITE 2: note = 2-Aminoisobutyric Acid; SITE 6: note = alpha-methyl-2-fluoro-L-phenylalanine; SITE 11: note = alpha-methyl-L-serine; SITE 13: note = alpha-methyl-leucine; SITE 16: note = L-ornithine; SITE 17: note = Lysine is chemically modified through conjugation of the epsilon) [Example 402]",
    "Group label": 1
  },
  {
    "Binder": "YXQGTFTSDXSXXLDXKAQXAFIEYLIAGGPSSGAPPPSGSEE (non-natural residues, C-terminal amide, acylated Lys with fatty diacid; synthetic construct; SITE 2: note = 2-Aminoisobutyric Acid; SITE 10: note = 3-(4-Pyridyl)-L-alanine; SITE 12: note = …; SITE 13: note = alpha-methyl-leucine; SITE 16: note = L-ornithine; SITE 17: note = Lysine is chemically modified through conjugation of the epsilon-amino group of the Lys) [Example 1061]",
    "Group label": -1
  },
  {
    "Binder": "YXQGTXTSDXSIXLDKKAQXAFIEYLEEGGPSSGAPPPSGEGE (C-terminal amide; lysine acylated with (γ-Glu)2-C18 diacid; synthetic construct; SITE 2: note = 2-Aminoisobutyric Acid; SITE 6: note = alpha-methyl-2-fluoro-L-phenylalanine; SITE 10: note = 3-(4-Pyridyl)-L-alanine; SITE 13: note = alpha-methyl-leucine; SITE 17: note = Lysine is chemically modified through conjugation of the epsilon-amino group of the Lysine) [Example 623]",
    "Group label": -1
  },
  {
    "Binder": "YXQGTXTSDXXIXLDXKAQXEFIEXLIEGGPPSXXPPPSGGGE (Lys acylated with AEEA-γGlu-C18 diacid; non-natural residues; C-amide; synthetic construct; SITE 2: note = 2-Aminoisobutyric Acid; SITE 6: note = alpha-methyl-2-fluoro-L-phenylalanine; SITE 10: note = 3-(4-Pyridyl)-L-alanine; SITE 11: note = alpha-methyl-L-serine; SITE 13: note = alpha-methyl-leucine; SITE 16: note = L-ornithine; SITE 17: note = Lysine is chemically mo) [Example 1199]",
    "Group label": 1
  },
  {
    "Binder": "YXQGTFTSDFSKXLDKKAQXAFIEWLIEGGPSSGAPPPSEG (Aib, αMeL; lysine acylated; C-terminal amide; synthetic construct; SITE 2: note = 2-Aminoisobutyric Acid; SITE 13: note = alpha-methyl-leucine; SITE 17: note = Lysine is chemically modified through conjugation of the epsilon-amino group of the Lysine side chain with (2-[2-(2-Amino-ethoxy)-ethoxy]-acetyl)-(gamma-Glu)-CO-(CH2) 18-CO2H; SITE 20: n) [Example 40]",
    "Group label": -1
  }
]

Problem: Just wondering, is Relative cAMP EC50 of YXQGTFTSDXSXXLDXKAQXAFIEYLLAGGPSSGAPPPSGSEE (C-terminal amide; lysine acylated with (γ-Glu)2-C18 diacid; synthetic construct; SITE 2: note = 2-Aminoisobutyric Acid; SITE 10: note = 3-(4-Pyridyl)-L-alanine; SITE 12: note = L-ornithine; SITE 13: note = alpha-methyl-leucine; SITE 16: note = L-ornithine; SITE 17: note = Lysine is chemically modified through conjugation of the epsilon-amino group of the Lys) [Example 1068] below 6 nM?
Solution: 1

Problem: Just wondering, is Relative cAMP EC50 of YXQGTFTSDFSKXLDKKAQXAFIEYLLEAGPSSGAPPPGEG (not fully specified; Aib, αMeL; acylated Lys; C-terminal amide; synthetic construct; SITE 2: note = 2-Aminoisobutyric Acid; SITE 13: note = alpha-methyl-leucine; SITE 17: note = Lysine is chemically modified through conjugation of the epsilon-amino group of the Lysine side chain with (2-[2-(2-Amino-ethoxy)-ethoxy]-acetyl)-(gamma-Glu)-CO-(CH2) 18-CO2H; SITE 20: n) [Example 34] below 6 nM?
Solution: 1

Problem: Just wondering, is Relative cAMP EC50 of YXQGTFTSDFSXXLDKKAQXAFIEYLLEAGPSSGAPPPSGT (non-natural residues, lysine acylation, C-terminal amide; synthetic construct; SITE 2: note = 2-Aminoisobutyric Acid; SITE 12: note = L-ornithine; SITE 13: note = alpha-methyl-leucine; SITE 17: note = Lysine is chemically modified through conjugation of the epsilon-amino group of the Lysine side chain with (2-[2-(2-Amino-ethoxy)-ethoxy]-acetyl)-(gamma-Glu)) [Example 210] below 6 nM?
Solution: 1

Problem: Just wondering, is Relative cAMP EC50 of YXQGTFTSDFSXXLDKKAQXAFIEYLLEAGPSSGAPPPSGH (synthetic construct; SITE 2: note = 2-Aminoisobutyric Acid; SITE 12: note = L-ornithine; SITE 13: note = alpha-methyl-leucine; SITE 17: note = Lysine is chemically modified through conjugation of the epsilon-amino group of the Lysine side chain with (2-[2-(2-Amino-ethoxy)-ethoxy]-acetyl)-(gamma-Glu)) [Example 259] below 6 nM?
Solution: 1

Problem: Just wondering, is Relative cAMP EC50 of YXQGTFTSDXSQXLDXKAQXAFIEXLIAXGPSSGAPPPSGSEE (non-natural residues, lipidated Lys, C-terminal amide; synthetic construct; SITE 2: note = 2-Aminoisobutyric Acid; SITE 10: note = 3-(4-Pyridyl)-L-alanine; SITE 13: note = alpha-methyl-leucine; SITE 16: note = L-ornithine; SITE 17: note = Lysine is chemically modified through conjugation of the epsilon-amino group of the Lysine side chain with (gamma-Gl)) [Example 1107] below 6 nM?
Solution: 1

Problem: Just wondering, is Relative cAMP EC50 of YXQGTFTSDFSXXLDKKAQXAFIEYLIEXGESSGAPPPSGE (non-natural residues; lipidated Lys; C-terminal amide; synthetic construct; SITE 2: note = 2-Aminoisobutyric Acid; SITE 12: note = L-ornithine; SITE 13: note = alpha-methyl-leucine; SITE 17: note = Lysine is chemically modified through conjugation of the epsilon-amino group of the Lysine side chain with (2-[2-(2-Amino-ethoxy)-ethoxy]-acetyl)-(gamma-Glu)) [Example 219] below 6 nM?
Solution: -1
